# pIC50 annotations
# Assay target: ALK5 (Homo sapiens (Human))
# Sequence (P36897 34-503): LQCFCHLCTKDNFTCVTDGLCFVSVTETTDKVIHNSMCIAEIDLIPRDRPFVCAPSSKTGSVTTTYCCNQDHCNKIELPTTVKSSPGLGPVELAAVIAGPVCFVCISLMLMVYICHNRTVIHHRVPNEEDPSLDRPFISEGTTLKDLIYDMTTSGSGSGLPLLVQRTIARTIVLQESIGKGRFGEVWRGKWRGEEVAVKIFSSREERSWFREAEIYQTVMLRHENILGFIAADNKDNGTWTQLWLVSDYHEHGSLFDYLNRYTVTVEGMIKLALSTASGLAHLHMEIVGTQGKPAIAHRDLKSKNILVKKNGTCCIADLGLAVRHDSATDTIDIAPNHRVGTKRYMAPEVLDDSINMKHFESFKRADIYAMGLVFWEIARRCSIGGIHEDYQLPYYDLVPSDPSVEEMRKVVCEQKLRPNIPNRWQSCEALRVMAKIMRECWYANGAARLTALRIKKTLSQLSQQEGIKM
# Procedure summary: Cell-free assay for inhibition of ALK5 kinase phosphorylation
# Assay type: biochemical
# Stated conditions: read-out: IC50 on ALK5 kinase phosphorylation
pIC50: −log10 of the molar value.

Compound structure: Cc1cccc(-c2[nH]c(Cc3cccc(C#N)c3)nc2-c2ccc3ncnn3c2)n1
pIC50: 7.91
--
Compound structure: COCc1ccc(NCc2nc(-c3ccc4ncnn4c3)c(-c3cccc(C)n3)[nH]2)cc1
pIC50: 7.29
--
Compound structure: Cc1cccc(-c2[nH]c(CNc3cccc(C)c3C)nc2-c2ccc3ncnn3c2)n1
pIC50: 7.74
--
Compound structure: CCc1cccc(-c2[nH]c(CNc3ccccc3F)nc2-c2ccc3ncnn3c2)n1
pIC50: 7.63
--
Compound structure: COc1ccc(NCc2nc(-c3ccc4ncnn4c3)c(-c3cccc(C)n3)[nH]2)cc1
pIC50: 7.32
--
Compound structure: Cc1cccc(-c2[nH]c(CNc3cccc(NS(C)(=O)=O)c3)nc2-c2ccc3ncnn3c2)n1
pIC50: 7.82
--
Compound structure: CC(=O)Nc1ccccc1NCc1nc(-c2ccc3ncnn3c2)c(-c2cccc(C)n2)[nH]1
pIC50: 7.40
--
Compound structure: Cc1cccc(-c2[nH]c(CN(C)c3ccccc3F)nc2-c2ccc3ncnn3c2)n1
pIC50: 7.30
